Experiment: xn = mol fraction of the nth substance listed
Settings: 293.15 K; 100 kPa; Liquid; Vibrating tube method; x1 = 0.5999
Observable: mass density (kg/m3)
# value in kg/m3; strip the unit string

molecule="CCCCCCCC(=O)OCC [ethyl octanoate] + CC(C)CO" measured_result=850.21
molecule="CCCCCCCC(=O)OCC [ethyl octanoate] + CC(C)CCO" measured_result=850.42
molecule="CCOC(=O)CCC(=O)OCC [diethyl butanedioate] + CC(C)CO" measured_result=974.02

Consider now this further molecule.
Task: Look up mass density: CCOC(=O)CCC(=O)OCC [diethyl butanedioate] + CC(C)CCO
Result: 967.82

* * *

Assay: xn = mol fraction of the nth substance listed
Details: 308.15 K; 100 kPa; Liquid; Vibrating tube method; x1 = 0.5999
Observable: mass density (kg/m3)
Give a bare numeral; the unit kg/m3 is implied.

molecule="CCOC(=O)CCC(=O)OCC [diethyl butanedioate] + CC(C)CO" observable="mass density" unit_descriptor=kg/m3 measured_result=959.14
molecule="CCOC(=O)CCC(=O)OCC [diethyl butanedioate] + CC(C)CCO" observable="mass density" unit_descriptor=kg/m3 measured_result=953.31
molecule="CCCCCCCC(=O)OCC [ethyl octanoate] + CC(C)CO" observable="mass density" unit_descriptor=kg/m3 measured_result=837.24

Task: Look up mass density: CCCCCCCC(=O)OCC [ethyl octanoate] + CC(C)CCO
Result: 837.72

* * *

// reported refractive index per item
Assay: refractive index (Na D-line) (dimensionless); xn = mol fraction of the nth substance listed
Details: 318.15 K; 100 kPa; Liquid; Standard Abbe refractometry; x1 = 0.5999
Just the number.

compound="CCOC(=O)CCC(=O)OCC [diethyl butanedioate] + CC(C)CO" observable="refractive index" measured_result=1.4015
compound="CCCCCCCC(=O)OCC [ethyl octanoate] + CC(C)CCO" observable="refractive index" measured_result=1.4034
compound="CCCCCCCC(=O)OCC [ethyl octanoate] + CC(C)CO" observable="refractive index" measured_result=1.4007

Could you now look at the following compound, please?
Task: Record request: refractive index value, item CCOC(=O)CCC(=O)OCC [diethyl butanedioate] + CC(C)CCO
Result: 1.4041
